readout.type: melting point

Observe how each entry below is paired with its result.
N#Cc1ccc(C(=O)Nc2nc(-c3ccco3)c(C(=O)C3CCC(=O)CC3)s2)cc1    211 to 212 °C
O=C(Nc1nc(-c2ccco2)c(C(=O)c2ccccn2)s1)c1ccc2c(c1)OCO2    235 to 236 °C
O=C(Nc1nc(-c2ccco2)c(C(=O)c2ccccn2)s1)c1cc(Cl)nc(Cl)c1    254 to 258 °C
O=C(Nc1nc(-c2ccco2)c(C(=O)C2CCOCC2)s1)c1ccccc1OC(F)(F)F    131 to 134 °C

What value of melting point has been recorded for this entry: O=C(Nc1nc(-c2ccco2)c(C(=O)c2ccccn2)s1)c1ccnc(N2CCCCC2)c1 136 to 141 °C

Please look up its melting point: N#Cc1ccc(C(=O)Nc2nc(-c3ccco3)c(C(=O)C3CCC3)s2)cc1 220 to 225 °C

----------
We begin with a simple list: items and their reported melting point.

# count of solved cases: 5
O=C(Nc1nc(-c2ccco2)c(C(=O)c2cccnn2)s1)c1ccncc1    280 to 281 °C
Cn1nnc2ccc(C(=O)Nc3nc(-c4ccco4)c(C(=O)c4ccccn4)s3)cc21    230 to 231 °C
Cc1ccc(C(=O)c2sc(NC(=O)c3ccoc3)nc2-c2ccco2)cn1    229 to 231 °C
Cn1cc(-c2sc(NC(=O)c3ccncc3)nc2-c2ccco2)ccc1=O    294 to 295 °C
Cc1cc(C(=O)Nc2nc(-c3ccco3)c(C(=O)c3ccccn3)s2)no1    209 to 213 °C

Look at this molecule and give its reported melting point. O=C(COc1ccccc1)Nc1nc(-c2ccco2)c(C(=O)C2CCOCC2)s1 148 to 150 °C

For CC(C)N1CCN(CC(=O)Nc2nc(-c3ccco3)c(C(=O)c3ccccn3)s2)CC1 , what is its reported melting point? 154 to 155 °C

Entry COc1ccc(OC)c(C(=O)Nc2nc(-c3ccco3)c(C(=O)C3CCOCC3)s2)c1 : reported melting point = ? 107 to 110 °C

Can you look up the measured melting point of Cc1occc1C(=O)Nc1nc(-c2ccco2)c(C(=O)c2ccccn2)s1 for me? 183 to 186 °C

What value of melting point has been reported for the following molecule? Cc1cnc(C(=O)Nc2nc(-c3ccco3)c(C(=O)c3ccccn3)s2)cn1 208 to 209 °C

// lookup melting point for O=C(Nc1nc(-c2ccco2)c(C(=O)C2CCC2)s1)C1CC1 200 to 205 °C

Fill blank: measured melting point of the molecule O=C(Nc1nc(-c2ccco2)c(C(=O)C2CCOCC2)s1)c1ccc(F)cc1 is ____. 131 to 132 °C

----------
Documented melting point across a set of compounds

Use these answered entries as a reference point.
CC1CCN(CC(=O)Nc2nc(-c3ccco3)c(C(=O)c3ccccn3)s2)CC1    104 to 106 °C
Cn1c(-c2sc(NC(=O)c3ccccc3)nc2-c2ccco2)cc2ccccc21    195 to 196 °C
O=C(CN1CCC(N2CCOCC2)CC1)Nc1nc(-c2ccco2)c(C(=O)c2ccccn2)s1    149 to 150 °C

For the compound N#Cc1ccccc1C(=O)Nc1nc(-c2ccco2)c(C(=O)C2CCOCC2)s1 , what melting point is on record? 221 to 224 °C
